PROTOCOL_SUMMARY: inhibition of PEG-3 promoter activity – cell-based, HeLa, luciferase luminescence, primary screen (AID 588405)
RUN_CONDITIONS: HeLa PEG-Prom luciferase reporter, overnight, at 20 µM, active compounds read high
Screen size: about 360,000 compounds; about 6,200 (1.7%) were called active. For the sample, actives were picked, then their nearest neighbours and some compounds at random.
The compounds listed here are annotated with their inhibition.
# number only, unit % dropped from output

# example entries with known answers
Q: Give reported inhibition value for NC(=O)CSc1nnc(NC(=O)c2ccc(Br)o2)s1
Result: -5.94

Q: Give reported inhibition value for CCNC(=O)C1CCCN(C(=O)c2cc(F)ccc2C)CC1 (stereo not given)
Result: 2.54

Q: Give reported inhibition value for CCc1nc2ccc(C(=O)Nc3cc(-c4ccccc4)ccc3OC)cn2c1N(CC)CC(=O)N(C)C
Result: -22.1

Q: Give reported inhibition value for COc1cc(CN2CCNC(=O)C2CC(=O)NCCc2ncccc2C)cc(OC)c1 (stereo not given)
Result: -16.1

More entries:
Q: Give reported inhibition value for Cc1ccc(CS(=O)(=O)c2ncc(Cl)c(C(=O)Nc3nnc(C)s3)n2)cc1
Result: 98.9

* * *

PROTOCOL_SUMMARY: inhibition of PEG-3 promoter activity – cell-based, HeLa, luciferase luminescence, primary screen (AID 588405)
RUN_CONDITIONS: HeLa PEG-Prom luciferase reporter, overnight, at 20 µM, active compounds read high
In all, about 360,000 compounds went through this assay and about 6,200 (1.7%) were called active. The list comes from a sample in which actives are over-represented; it also holds close analogues and randomly drawn compounds.
The compounds listed here are annotated with their inhibition.

# example entries with known answers
Q: Give reported inhibition value for CC1(C(=O)NCC2CCOCC2)Cc2c(-c3cccc(C(N)=O)c3)ccnc2O1 (stereo not given)
Result: 8.22% (inactive)

Q: Give reported inhibition value for O=C(NCc1cccnc1)c1ccc2nc([C@@H]3O[C@H](CO)[C@H](O)[C@H](O)[C@H]3O)[nH]c2c1
Result: 15.8% (inactive)

Q: Give reported inhibition value for COc1ccc2sc(-c3ccc(S(C)(=O)=O)cc3)c(-c3ccc(C(N)=O)cc3)c2c1
Result: 3.59% (inactive)

More entries:
Q: Give reported inhibition value for COc1ccc2sc(-c3ccc(S(C)(=O)=O)cc3)c(C#Cc3cncn3C)c2c1
Result: 54.5% (active)

Q: Give reported inhibition value for CCNC(=O)C1CCCN(C(=O)c2ccc(OC)cc2OC)CC1 (stereo not given)
Result: -2.59% (inactive)

* * *

PROTOCOL_SUMMARY: inhibition of PEG-3 promoter activity – cell-based, HeLa, luciferase luminescence, primary screen (AID 588405)
RUN_CONDITIONS: HeLa PEG-Prom luciferase reporter, overnight, at 20 µM, active compounds read high
Hit rate of the full screen: of about 360,000 compounds, about 6,200 (1.7%) were called active. Shown is part of a subset that was picked to be rich in actives.
The molecules listed here are annotated with their inhibition.
# number only, unit % dropped from output

Q: Give reported inhibition value for COc1ccc(CNC(=O)c2ccc(-c3cccnc3)c3ccoc23)cc1OC
Result: 10.8

More entries:
Q: Give reported inhibition value for COc1ccc(C(=O)n2nc(-c3ccc(Cl)cc3)nc2N)cc1OC
Result: 10.6

Q: Give reported inhibition value for O=[N+]([O-])c1ccc(C=Nc2ccc(Cl)cc2Cl)s1
Result: 47.5

Q: Give reported inhibition value for COc1ccc(NC(=O)c2cc(-c3cc(OC)c(OC)c(OC)c3)nc3ccccc23)c(OC)c1
Result: 50.8

Q: Give reported inhibition value for COc1ccc(-c2cc(C(=O)N(C)Cc3ccc(OC)c(OC)c3OC)c3ccccc3n2)cc1OC
Result: 50.1

Q: Give reported inhibition value for CC(C)(O)C#Cc1ccc(CN2CCC(CO)(CCc3ccccc3)CC2)cc1
Result: 1.12

Q: Give reported inhibition value for CC1(Oc2ccccc2-c2ccno2)CCN(Cc2ccc(-c3ccccc3)o2)C1 (configuration not stated)
Result: 0.4

Q: Give reported inhibition value for CCCNC(=O)C1(C)CCN1C(=O)Cc1ccc(-c2ccccc2)cc1 (configuration not stated)
Result: -9.6

Q: Give reported inhibition value for CCN(CC)CCC(c1cc(OC)c(OC)c(OC)c1)c1c(OC)cc(OC)c2c(-c3ccccc3)cc(=O)oc12 (configuration not stated)
Result: 27.4

Q: Give reported inhibition value for CN(C)c1ccc(C2N(C)C(=O)c3ccccc3N2C)cc1 (configuration not stated)
Result: 17.6

Q: Give reported inhibition value for Cc1ccc(Cc2c(-c3ccco3)nc3ccc(Cl)cn23)cc1
Result: 2.16

* * *

PROTOCOL_SUMMARY: inhibition of PEG-3 promoter activity – cell-based, HeLa, luciferase luminescence, primary screen (AID 588405)
RUN_CONDITIONS: HeLa PEG-Prom luciferase reporter, overnight, at 20 µM, active compounds read high
In all, about 360,000 compounds went through this assay and about 6,200 (1.7%) were called active. The list comes from a sample in which actives are over-represented; it also holds close analogues and randomly drawn compounds.
inhibition below 30% gives rule not met; inhibition at or above it gives rule met.

Q: Textbook exercise: given the entry Cc1cccc(-c2nc3ccc(C(=O)NCCN4CCN(C)CC4)cc3nc2-c2cccc(C)c2)c1 , state whether its inhibition is greater than or equal to 30%.
Result: rule met

Q: Textbook exercise: given the entry CN(Cc1ccccc1F)c1cc2c(c3c1ccn3C)C1CCC2O1 (stereo not given) , state whether its inhibition is greater than or equal to 30%.
Result: rule met

* * *

PROTOCOL_SUMMARY: inhibition of PEG-3 promoter activity – cell-based, HeLa, luciferase luminescence, primary screen (AID 588405)
RUN_CONDITIONS: HeLa PEG-Prom luciferase reporter, overnight, at 20 µM, active compounds read high
In all, about 360,000 compounds went through this assay and about 6,200 (1.7%) were called active. This excerpt belongs to a sample that is enriched for actives.
The compounds listed here are annotated with their inhibition.
# number only, unit % dropped from output

Q: Give reported inhibition value for OCCC1CN(Cc2cccc(OC3CCCC3)c2)CCN1Cc1ccsc1 (stereo unspecified)
Result: 18.8

More entries:
Q: Give reported inhibition value for O=C(NCC(O)c1nc2ccccc2[nH]1)c1ccc(Br)cc1 (stereo unspecified)
Result: -5.63

Q: Give reported inhibition value for O=C(Cc1ccc(-n2c(=O)[nH]c3ccccc3c2=O)cc1)N1CCN(c2cccc(Cl)c2)CC1
Result: 9.68

Q: Give reported inhibition value for O=S(=O)(Nc1cccc(-n2cnnn2)c1)c1cnc(Cl)c(Cl)c1
Result: 3.56

Q: Give reported inhibition value for COc1cccc2sc3cc(NCC[C@@H]4CCCN4C)ccc3c(=O)c12
Result: -254

Q: Give reported inhibition value for O=C(CSc1cccc2cccnc12)N/N=C/c1cccnc1
Result: 74.3

Q: Give reported inhibition value for CC(=O)N1CCN(Cc2cc(=O)oc3cc(C)ccc23)CC1
Result: -2.53

Q: Give reported inhibition value for Cc1cc2oc3ccc(NCCC4CCCN4C)cc3c(=O)c2cc1C (stereo unspecified)
Result: 103

Q: Give reported inhibition value for COc1ccc(/C=C/C(=O)c2c(O)cc(OC)cc2OC)cc1
Result: -132

Q: Give reported inhibition value for CNC(=O)C1CC(=O)N(c2ccc(OCC(=O)Nc3ccccc3C)cc2)C1 (stereo unspecified)
Result: -61.3

Q: Give reported inhibition value for COc1cc(OC)cc(-c2sc3ccc(OC)cc3c2-c2ccc3cc[nH]c3c2)c1
Result: 2.15

Q: Give reported inhibition value for CN1OC[C@@H]2CN(C(=O)C(C)(C)C)[C@H](c3ccc(-n4ccnc4)cc3)C[C@@H]21
Result: -4.85

* * *

The compounds listed here are annotated with their inhibition.
PROTOCOL_SUMMARY: inhibition of PEG-3 promoter activity – cell-based, HeLa, luciferase luminescence, primary screen (AID 588405)
RUN_CONDITIONS: HeLa PEG-Prom luciferase reporter, overnight, at 20 µM, active compounds read high
The campaign covered roughly 360,000 compounds. About 6,200 (1.7%) were called active. The sample as a whole holds a higher share of actives than the screen did.
# number only, unit % dropped from output

# example entries with known answers
Q: Give reported inhibition value for COc1cc(C=C(OC(C)=O)c2ccc3c(c2)OCO3)cc(OC)c1OC
Result: 7.01

Q: Give reported inhibition value for COc1ccccc1C(=O)COC(=O)COc1ccc(C#N)cc1
Result: 10.1

More entries:
Q: Give reported inhibition value for CCn1c(=S)[nH]c2sc3c(c2c1=O)CCCCC3
Result: -19.3

Q: Give reported inhibition value for CC1(C)Cc2nc3sc4c(SCC(=O)NC(c5ccccc5)c5ccccc5)ncnc4c3cc2CO1
Result: -23

Q: Give reported inhibition value for O=C1C(Cl)=C(Oc2ccccc2)C(=O)c2ccccc21
Result: 104

Q: Give reported inhibition value for S=C(NCCCc1ccccc1)Nc1ccc(Br)cc1
Result: 5.05

Q: Give reported inhibition value for OC(c1ccccc1)c1nc(/C=C/c2ccc(C(F)(F)F)cc2)cs1 (stereo not drawn)
Result: 3.42

Q: Give reported inhibition value for Cc1nc2cc(S(=O)(=O)C(F)(F)F)ccc2s1
Result: 2.35
